Target: T1, human CD19 (human, UniProt P15391 20-556)
T1 construct: whole, on cells; also called Cluster of Differentiation 19; hPro1
T1 sequence (looked up): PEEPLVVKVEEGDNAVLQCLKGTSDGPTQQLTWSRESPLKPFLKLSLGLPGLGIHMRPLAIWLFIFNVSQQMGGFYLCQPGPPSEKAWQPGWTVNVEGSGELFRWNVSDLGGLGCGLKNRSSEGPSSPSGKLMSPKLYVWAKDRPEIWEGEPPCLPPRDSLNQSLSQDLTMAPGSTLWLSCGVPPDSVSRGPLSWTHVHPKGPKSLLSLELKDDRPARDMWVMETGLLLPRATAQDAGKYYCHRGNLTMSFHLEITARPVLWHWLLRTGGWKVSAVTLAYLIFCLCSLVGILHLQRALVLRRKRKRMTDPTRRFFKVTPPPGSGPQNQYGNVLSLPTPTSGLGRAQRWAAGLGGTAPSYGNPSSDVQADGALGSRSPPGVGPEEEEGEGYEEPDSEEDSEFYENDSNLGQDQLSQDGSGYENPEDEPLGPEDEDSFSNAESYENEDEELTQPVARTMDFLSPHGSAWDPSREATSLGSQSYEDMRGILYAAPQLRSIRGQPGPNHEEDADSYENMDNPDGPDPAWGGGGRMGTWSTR
Experiment: flow cytometry on Ramos cells
assayMetric: pEC50
The meaning of pEC50 here: minus log10 of the concentration in molar units.

# binder, pEC50
data = [
    ("WBP7011_4.231.5 (antibody, V domains shown, also called W7011-4.231.5) VH: EVQLQQSGPELVKPGASVKMSCKASGYTFTSYVMHWVKQKPGQGLEWIGYINPYNDGTQYNEKFKGKATLTSDKSSSTAYMELSSLTSEDSAVYYCARGPYYYSPSPFDYWGQGTTLTVSS VL: DAVMTQTPLSLPVSLGDQASISCRSSQSLENSNGNTYLNWYLQKPGQSPQLLIYRVSNRFSGVLDRFSGSGSGTDFTLKISRVEAEDLGVYFCLQVTHVPYTFGGGTKLEIK", 9.92),
]

Documented pEC50 of WBP7011-4.34.11 (antibody, V domains shown) VH: EVQLQQSGPELVKPGASVKMSCKASGYTFTNYVIHWVKQKPGQGLEWIGYFNPYNDGTEYNEKFKAKATLTSDKSSSTAYMELSSLTSEDSAVYYCAKGPYYYGSSPFDYWGQGTTLTVSS VL: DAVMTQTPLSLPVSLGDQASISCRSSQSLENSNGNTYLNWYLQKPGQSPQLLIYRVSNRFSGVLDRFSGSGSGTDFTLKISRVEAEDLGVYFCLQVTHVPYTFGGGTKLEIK : 9.64

FYI, the data here is from patent US20200289563A1.
